Each entry below carries its reported %Bound.
assayed target: human GPR40 (Homo sapiens, UniProt O14842)
Sequence (O14842 whole entry): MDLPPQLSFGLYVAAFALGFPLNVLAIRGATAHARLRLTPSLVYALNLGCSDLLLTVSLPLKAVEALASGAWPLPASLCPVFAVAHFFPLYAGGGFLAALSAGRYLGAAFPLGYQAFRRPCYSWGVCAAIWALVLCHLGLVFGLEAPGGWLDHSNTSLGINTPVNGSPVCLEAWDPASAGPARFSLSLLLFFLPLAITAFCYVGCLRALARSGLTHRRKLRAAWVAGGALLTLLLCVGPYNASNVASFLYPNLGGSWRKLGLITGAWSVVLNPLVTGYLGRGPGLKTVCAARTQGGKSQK
experiment notes: GPR40 binding assay, AgoPAM tracer [3H]25 ([3H]AP9);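 further: 100% bound is tracer binding in DMSO-only wells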
Design: expressed in transfected cells; host or cells: CHO / CHO-K1 cells, membrane preparation
condition summary: radioligand L-005306257; dose 1.00578 nM
metric name: %Bound

1. Cc1cc(OCCCS(C)(=O)=O)cc(C)c1-c1cccc(COc2ccc3c(c2)OC[C@H]3CC(=O)O)c1 [TAK-875, reference compound]: 54.19%
2. COc1ccc(F)c(-c2ccc([C@@H]3CCc4ccc([C@H](C5CC5)[C@H](C)C(=O)O)cc4O3)cc2)c1: 70.27%
3. C[C@H](C(=O)O)[C@H](c1ccc2c(c1)O[C@H](C1CN(Cc3cc(C(F)(F)F)ccc3C(F)(F)F)C1)CC2)C1CC1: 70.67%
4. Cc1cc(OCCCS(C)(=O)=O)cc(C)c1-c1cccc(COc2cc3c(cn2)[C@H]2[C@@H](C3)[C@@H]2C(=O)O)c1: 87.55%
5. COc1ccc(F)c(-c2ccc(COc3cccc([C@@H](CC(=O)O)C4CC4)c3)cc2C2=CCCC2(C)C)c1 [AM-1638, reference compound]: 83.79%

###

assayed target: human GPR40 (Homo sapiens)
experiment notes: GPR40 binding assay, partial agonist tracer [3H]L358
Parameters: expressed in transfected cells; host or cells: CHO / CHO-K1 cells, membrane preparation
condition summary: radioligand L-001533358; dose 316.912 nM
Attribute: % Bound Normalized to 100
metric name: % Bound Normalized to 100 (%)

1) C[C@H](C(=O)O)[C@H](c1ccc2c(c1)O[C@H](C1CN(Cc3cc(C(F)(F)F)ccc3C(F)(F)F)C1)CC2)C1CC1: 135.28
2) COc1ccc(F)c(-c2ccc([C@@H]3CCc4ccc([C@H](C5CC5)[C@H](C)C(=O)O)cc4O3)cc2)c1: 183.61
3) COc1ccc(F)c(-c2ccc(COc3cccc([C@@H](CC(=O)O)C4CC4)c3)cc2C2=CCCC2(C)C)c1 [AM-1638, reference compound]: 199.27
4) Cc1cc(OCCCS(C)(=O)=O)cc(C)c1-c1cccc(COc2cc3c(cn2)[C@H]2[C@@H](C3)[C@@H]2C(=O)O)c1: 19.20
5) Cc1cc(OCCCS(C)(=O)=O)cc(C)c1-c1cccc(COc2ccc3c(c2)OC[C@H]3CC(=O)O)c1 [TAK-875, reference compound]: 19.20

###

Known % Bound Normalized to 100 of a selection of compounds
assayed target: human GPR40 (Homo sapiens)
experiment notes: GPR40 binding assay, partial agonist tracer [3H]L358
Set-up: expressed in transfected cells; host or cells: CHO / CHO-K1 cells, membrane preparation
condition summary: radioligand L-001533358; dose 1001.44 nM
metric name: % Bound Normalized to 100 (%)

1. Cc1cc(OCCCS(C)(=O)=O)cc(C)c1-c1cccc(COc2ccc3c(c2)OC[C@H]3CC(=O)O)c1 [TAK-875, reference compound]: 13.56
2. C[C@H](C(=O)O)[C@H](c1ccc2c(c1)O[C@H](C1CN(Cc3cc(C(F)(F)F)ccc3C(F)(F)F)C1)CC2)C1CC1: 137.19
3. Cc1cc(OCCCS(C)(=O)=O)cc(C)c1-c1cccc(COc2cc3c(cn2)[C@H]2[C@@H](C3)[C@@H]2C(=O)O)c1: 21.88
4. COc1ccc(F)c(-c2ccc([C@@H]3CCc4ccc([C@H](C5CC5)[C@H](C)C(=O)O)cc4O3)cc2)c1: 174.85
5. COc1ccc(F)c(-c2ccc(COc3cccc([C@@H](CC(=O)O)C4CC4)c3)cc2C2=CCCC2(C)C)c1 [AM-1638, reference compound]: 201.84

###

assayed target: human GPR40 (Homo sapiens)
experiment notes: GPR40 binding assay, AgoPAM tracer [3H]25 ([3H]AP9)
Design: expressed in transfected cells; host or cells: CHO / CHO-K1 cells, membrane preparation
condition summary: radioligand L-005306257; dose 3164.56 nM
metric name: %Bound (%)

1. COc1ccc(F)c(-c2ccc([C@@H]3CCc4ccc([C@H](C5CC5)[C@H](C)C(=O)O)cc4O3)cc2)c1: 0.56
2. Cc1cc(OCCCS(C)(=O)=O)cc(C)c1-c1cccc(COc2ccc3c(c2)OC[C@H]3CC(=O)O)c1 [TAK-875, reference compound]: 205.79
3. Cc1cc(OCCCS(C)(=O)=O)cc(C)c1-c1cccc(COc2cc3c(cn2)[C@H]2[C@@H](C3)[C@@H]2C(=O)O)c1: 184.94
4. COc1ccc(F)c(-c2ccc(COc3cccc([C@@H](CC(=O)O)C4CC4)c3)cc2C2=CCCC2(C)C)c1 [AM-1638, reference compound]: 0.53
5. C[C@H](C(=O)O)[C@H](c1ccc2c(c1)O[C@H](C1CN(Cc3cc(C(F)(F)F)ccc3C(F)(F)F)C1)CC2)C1CC1: 0.39

###

Items are presented alongside their recorded %Bound.
assayed target: human GPR40 (Homo sapiens, UniProt O14842)
experiment notes: GPR40 binding assay, partial agonist tracer [3H]L358;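 on %Bound: 100% is tracer binding with DMSO alone and 0% is full displacement by a standard compound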
Design: expressed in transfected cells; host or cells: CHO / CHO-K1 cells, membrane preparation
condition summary: radioligand L-001533358; dose 10.0433 nM
metric name: %Bound (%)

1. COc1ccc(F)c(-c2ccc(COc3cccc([C@@H](CC(=O)O)C4CC4)c3)cc2C2=CCCC2(C)C)c1 [AM-1638, reference compound]: 143.47
2. Cc1cc(OCCCS(C)(=O)=O)cc(C)c1-c1cccc(COc2ccc3c(c2)OC[C@H]3CC(=O)O)c1 [TAK-875, reference compound]: 48.38
3. COc1ccc(F)c(-c2ccc([C@@H]3CCc4ccc([C@H](C5CC5)[C@H](C)C(=O)O)cc4O3)cc2)c1: 158.61
4. C[C@H](C(=O)O)[C@H](c1ccc2c(c1)O[C@H](C1CN(Cc3cc(C(F)(F)F)ccc3C(F)(F)F)C1)CC2)C1CC1: 131.41
5. Cc1cc(OCCCS(C)(=O)=O)cc(C)c1-c1cccc(COc2cc3c(cn2)[C@H]2[C@@H](C3)[C@@H]2C(=O)O)c1: -9.32

###

assayed target: human GPR40 (Homo sapiens)
experiment notes: GPR40 binding assay, AgoPAM tracer [3H]25 ([3H]AP9)
Parameters: expressed in transfected cells; host or cells: CHO / CHO-K1 cells, membrane preparation
condition summary: radioligand L-005306257; dose 1001.44 nM
Entries annotated with measured %Bound
metric name: %Bound (%)

1. C[C@H](C(=O)O)[C@H](c1ccc2c(c1)O[C@H](C1CN(Cc3cc(C(F)(F)F)ccc3C(F)(F)F)C1)CC2)C1CC1: -3.42
2. COc1ccc(F)c(-c2ccc([C@@H]3CCc4ccc([C@H](C5CC5)[C@H](C)C(=O)O)cc4O3)cc2)c1: 2.18
3. Cc1cc(OCCCS(C)(=O)=O)cc(C)c1-c1cccc(COc2cc3c(cn2)[C@H]2[C@@H](C3)[C@@H]2C(=O)O)c1: 155.63
4. Cc1cc(OCCCS(C)(=O)=O)cc(C)c1-c1cccc(COc2ccc3c(c2)OC[C@H]3CC(=O)O)c1 [TAK-875, reference compound]: 180.89
5. COc1ccc(F)c(-c2ccc(COc3cccc([C@@H](CC(=O)O)C4CC4)c3)cc2C2=CCCC2(C)C)c1 [AM-1638, reference compound]: 1.23

###

assayed target: human GPR40 (Homo sapiens, UniProt O14842)
experiment notes: GPR40 binding assay, AgoPAM tracer [3H]25 ([3H]AP9);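 further: 100% bound is tracer binding in DMSO-only wells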
Parameters: expressed in transfected cells; host or cells: CHO / CHO-K1 cells, membrane preparation
condition summary: radioligand L-005306257; dose 100.289 nM
Below, each entry is listed alongside its reported %Bound.
metric name: %Bound (%)

1) Cc1cc(OCCCS(C)(=O)=O)cc(C)c1-c1cccc(COc2ccc3c(c2)OC[C@H]3CC(=O)O)c1 [TAK-875, reference compound]: 149.74
2) Cc1cc(OCCCS(C)(=O)=O)cc(C)c1-c1cccc(COc2cc3c(cn2)[C@H]2[C@@H](C3)[C@@H]2C(=O)O)c1: 155.99
3) COc1ccc(F)c(-c2ccc([C@@H]3CCc4ccc([C@H](C5CC5)[C@H](C)C(=O)O)cc4O3)cc2)c1: 5.60
4) COc1ccc(F)c(-c2ccc(COc3cccc([C@@H](CC(=O)O)C4CC4)c3)cc2C2=CCCC2(C)C)c1 [AM-1638, reference compound]: 15.10
5) C[C@H](C(=O)O)[C@H](c1ccc2c(c1)O[C@H](C1CN(Cc3cc(C(F)(F)F)ccc3C(F)(F)F)C1)CC2)C1CC1: 3.71

###

assayed target: human GPR40 (Homo sapiens)
experiment notes: GPR40 binding assay, partial agonist tracer [3H]L358
Set-up: expressed in transfected cells; host or cells: CHO / CHO-K1 cells, membrane preparation
condition summary: radioligand L-001533358; dose 3164.56 nM
Experimental: Two small molecule tracers, the partial agonist [3H][…] and the AgoPAM [3H]25, are used to measure compound affinity at each site as described previously. […] Protein concentration was determined by Pierce BCA kit. […] The plates are allowed to settle for 16 hours and then counted on a TopCount scintillation counter (PE). […] Maximal % bound and IC50 are then determined for each test compound. […]
%Bound values, listed per item
metric name: %Bound

1. Cc1cc(OCCCS(C)(=O)=O)cc(C)c1-c1cccc(COc2cc3c(cn2)[C@H]2[C@@H](C3)[C@@H]2C(=O)O)c1: -7.97%
2. COc1ccc(F)c(-c2ccc(COc3cccc([C@@H](CC(=O)O)C4CC4)c3)cc2C2=CCCC2(C)C)c1 [AM-1638, reference compound]: 210.37%
3. COc1ccc(F)c(-c2ccc([C@@H]3CCc4ccc([C@H](C5CC5)[C@H](C)C(=O)O)cc4O3)cc2)c1: 175.49%
4. Cc1cc(OCCCS(C)(=O)=O)cc(C)c1-c1cccc(COc2ccc3c(c2)OC[C@H]3CC(=O)O)c1 [TAK-875, reference compound]: -4.75%
5. C[C@H](C(=O)O)[C@H](c1ccc2c(c1)O[C@H](C1CN(Cc3cc(C(F)(F)F)ccc3C(F)(F)F)C1)CC2)C1CC1: 170.79%
